Target: purified human HDAC6 (Homo sapiens, UniProt Q9UBN7)
Construct: purchased BPS Bioscience 5006
Sequence (Q9UBN7 whole entry): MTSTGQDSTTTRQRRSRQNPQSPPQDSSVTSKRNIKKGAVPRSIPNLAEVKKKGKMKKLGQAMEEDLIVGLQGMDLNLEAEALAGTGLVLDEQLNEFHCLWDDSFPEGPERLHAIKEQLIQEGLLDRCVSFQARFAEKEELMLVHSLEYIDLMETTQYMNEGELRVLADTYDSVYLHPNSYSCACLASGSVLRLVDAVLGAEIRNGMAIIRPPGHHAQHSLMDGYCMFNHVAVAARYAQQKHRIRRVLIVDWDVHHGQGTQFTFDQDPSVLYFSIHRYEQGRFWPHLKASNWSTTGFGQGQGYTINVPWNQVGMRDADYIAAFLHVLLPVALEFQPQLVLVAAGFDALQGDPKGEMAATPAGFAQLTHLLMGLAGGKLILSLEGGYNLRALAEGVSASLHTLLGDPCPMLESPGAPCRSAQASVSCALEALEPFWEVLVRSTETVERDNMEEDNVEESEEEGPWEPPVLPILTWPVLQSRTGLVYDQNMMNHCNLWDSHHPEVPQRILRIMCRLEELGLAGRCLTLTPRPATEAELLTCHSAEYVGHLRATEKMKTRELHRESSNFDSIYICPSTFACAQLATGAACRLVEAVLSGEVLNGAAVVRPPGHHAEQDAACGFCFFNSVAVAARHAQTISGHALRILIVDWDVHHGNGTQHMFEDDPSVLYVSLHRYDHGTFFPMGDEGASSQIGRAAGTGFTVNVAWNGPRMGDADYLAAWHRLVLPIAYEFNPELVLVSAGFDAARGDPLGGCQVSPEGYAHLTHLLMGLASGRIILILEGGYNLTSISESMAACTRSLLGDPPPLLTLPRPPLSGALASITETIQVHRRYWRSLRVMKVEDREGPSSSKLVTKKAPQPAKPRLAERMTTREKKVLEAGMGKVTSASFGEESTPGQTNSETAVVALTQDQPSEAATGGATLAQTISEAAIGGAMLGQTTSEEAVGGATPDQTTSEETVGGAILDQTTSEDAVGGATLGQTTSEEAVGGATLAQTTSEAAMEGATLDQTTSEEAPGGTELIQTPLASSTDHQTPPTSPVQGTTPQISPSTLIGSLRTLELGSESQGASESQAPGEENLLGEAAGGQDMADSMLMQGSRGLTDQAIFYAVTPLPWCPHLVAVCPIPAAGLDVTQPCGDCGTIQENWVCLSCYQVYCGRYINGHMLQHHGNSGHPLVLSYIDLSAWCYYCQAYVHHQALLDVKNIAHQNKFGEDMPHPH
Test: HDAC6 Enzyme Assay
Type: biochemical
Settings: HDAC6 inhibition at a compound concentration of 0.412 μM; read-out: Percent Inhibition at 0.412 μM
Protocol: To measure the inhibition of HDAC6 activity, purified human HDAC6 (BPS Bioscience; Cat. No. 5006) is incubated with substrate Ac-Arg-Gly-Lys(Ac)-AMC peptide (Bachem Biosciences; Cat. No. I-1925) for 1 hour at 30° C. in the presence of test compounds or vehicle DMSO control. […] Concentration response curves are generated by calculating the fluorescence increase in test compound-treated samples relative to DMSO-treated controls, and enzyme inhibition (IC50) values are determined from those curves.
Output: class label from inhibition at 0.412 µM. Mapping: lo: < 40%; med: ≥ 40% and < 70%; hi: ≥ 70%

The examples below pair each entry with its known result.
MOLECULE	GROUP
CC(C)(Oc1ccccc1Cl)C(=O)NC1CCCc2cc(C(=O)NO)ccc21 (centres unmarked) [Compound I-14]	hi
O=C(NO)c1ccc2c(c1)CCC(Oc1ccncc1)C2 (centres unmarked) [Compound I-108]	hi
CC(C)(C)C(=O)N[C@@H]1CCc2ccc(C(=O)NO)cc2C1 [Compound I-73]	hi
O=C(Cc1c(F)cccc1F)NC1CCCc2cc(C(=O)NO)ccc21 (centres unmarked) [Compound I-1]	lo
O=C(Cc1ccc(C(F)(F)F)cc1)NC1CCCc2cc(C(=O)NO)ccc21 (centres unmarked) [Compound I-10]	lo
O=C(NO)c1ccc2c(c1)CCC(Oc1ccnc(NC(=O)C3CCNCC3)c1)C2 (centres unmarked) [Compound I-225]	hi
O=C(NO)c1ccc2c(c1)CCCC2NC(=O)c1ccc(-c2ccccc2)cc1 (centres unmarked) [Compound I-34]	lo
O=C(NO)c1ccc2c(c1)CCCC2NC(=O)c1cc2ccccc2o1 (centres unmarked) [Compound I-45]	med

Please let me know in which category the item COc1cccc2cc(C(=O)NC3CCCc4cc(C(=O)NO)ccc43)oc12 (centres unmarked) [Compound I-33] belongs.
med

* * *

Reported values of inhibition at 0.412 µM for individual entries
Molecular target: purified human HDAC6 (Homo sapiens, UniProt Q9UBN7)
Construct: purchased BPS Bioscience 5006
Assay: HDAC6 Enzyme Assay
Format: biochemical
Details: HDAC6 inhibition at a compound concentration of 0.412 μM; read-out: Percent Inhibition at 0.412 μM
# value in %; strip the unit string

Worked examples follow.
MOLECULE	REPORTED ENDPOINT	NUMERIC RESULT
O=C(NO)c1ccc2c(c1)CCC(c1cccnc1)C2 (stereo not drawn)	inhibition at 0.412 µM	80
O=C(NO)c1ccc2c(c1)CC(c1ccncc1)CC2 (stereo not drawn)	inhibition at 0.412 µM	89
CC1(C(=O)NC2CCc3cc(C(=O)NO)ccc3C2)CCNCC1 (stereo not drawn)	inhibition at 0.412 µM	73
O=C(NO)c1ccc2c(c1)CCC(Oc1ccccc1)C2 (stereo not drawn)	inhibition at 0.412 µM	92
Cc1ccc2[nH]c(C(=O)NC3CCCc4cc(C(=O)NO)ccc43)cc2c1 (stereo not drawn)	inhibition at 0.412 µM	60
O=C(NO)c1ccc2c(c1)CCC(c1ccccc1)C2 (stereo not drawn)	inhibition at 0.412 µM	62
COc1ccc(C2CCc3cc(C(=O)NO)ccc3C2)cc1 (stereo not drawn)	inhibition at 0.412 µM	43
O=C(NO)c1ccc2c(c1)CCC(NCc1ccc(Cl)cc1)C2 (stereo not drawn)	inhibition at 0.412 µM	90

Any idea what inhibition at 0.412 µM was measured for CC(C)N1CCC(C)(C(=O)Nc2cc(OC3CCc4cc(C(=O)NO)ccc4C3)ccn2)CC1 (stereo not drawn) ?
90

Tell me the measured inhibition at 0.412 µM of COc1ccc(C(C(=O)NC2CCCc3cc(C(=O)NO)ccc32)c2ccccc2)cc1 (stereo not drawn) , please.
23

Look up inhibition at 0.412 µM: CC(=O)Nc1cc(C2CCc3ccc(C(=O)NO)cc3C2)ccn1 (stereo not drawn)
92

Find the recorded inhibition at 0.412 µM belonging to `Cn1cccc1C(=O)N[C@H]1CCCc2cc(C(=O)NO)ccc21` and report it.
26

Data request, read-out inhibition at 0.412 µM, for O=C(NO)c1ccc2c(c1)CCCC2NC(=O)c1cc(C(F)(F)F)cc(C(F)(F)F)c1 (stereo not drawn)
15

Entry O=C(NO)c1ccc2c(c1)CC(c1cccnc1)CC2 (stereo not drawn) : reported inhibition at 0.412 µM = ?
85

Record request: inhibition at 0.412 µM value, item O=C(NO)c1ccc2c(c1)CC(CCc1ccccc1)CC2 (stereo not drawn)
74

Name the recorded inhibition at 0.412 µM for O=C(NO)c1ccc2c(c1)CCC(OCc1ccc(Cl)cc1)C2 (stereo not drawn) .
87

Which inhibition at 0.412 µM reading was recorded for the molecule O=C(NO)c1ccc2c(c1)CC(OCc1ccc(Cl)cc1)CC2 (stereo not drawn) ?
92

Fill in: inhibition at 0.412 µM of O=C(NO)c1ccc2c(c1)CC(NCCc1ccccc1)CC2 (stereo not drawn) is ___
84

Item O=C(NO)c1ccc2c(c1)CCC(NCc1ccncc1)C2 (stereo not drawn) has what recorded inhibition at 0.412 µM?
84

Please give the measured inhibition at 0.412 µM for this molecule: O=C(NO)c1ccc2c(c1)CC(Oc1ccc(Cl)cc1)CC2 (stereo not drawn)
93

Looking for the measured inhibition at 0.412 µM of Cc1oc(-c2ccccc2)cc1C(=O)NC1CCc2cc(C(=O)NO)ccc2C1 (stereo not drawn) , can you help?
56

# query: inhibition at 0.412 µM of entry O=C(NO)c1ccc2c(c1)CC(c1ccccc1)CC2 (stereo not drawn)
84

Need inhibition at 0.412 µM, item O=C(NO)c1ccc2c(c1)CCCC2NC(=O)C1(c2ccccc2)CCCC1 (stereo not drawn)
22

Entry under review: O=C(NO)c1ccc2c(c1)CCCC2NC(=O)c1cc(-c2ccc(F)cc2)n[nH]1 (stereo not drawn) . Reported inhibition at 0.412 µM?
71

Requested field: inhibition at 0.412 µM. Item: O=C(NO)c1ccc2c(c1)CC(c1cccc(C(F)(F)F)c1)CC2 (stereo not drawn)
81

Entry O=C(NO)c1ccc2c(c1)CC(Nc1ccc(Cl)cc1)CC2 (stereo not drawn) has what inhibition at 0.412 µM?
86

Would you kindly share the measured inhibition at 0.412 µM for O=C(NO)c1ccc2c(c1)C1CCC2N1C(=O)c1cc2ccccc2o1 (stereo not drawn) ?
19

Query (molecule): Cc1onc(-c2ccccc2Cl)c1C(=O)NC1CCCc2cc(C(=O)NO)ccc21 (stereo not drawn) ; field requested: inhibition at 0.412 µM
18

Every entry's value here was drawn from patent US20140243335A1.
